biological target: T1, cyno CD33 extracellular domain (Cynomolgus/Rhesus (cyno)); assay: SPR, Fab captured, 37C;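 further: surface plasmon resonance with Fabs captured on anti-Fab surface, soluble monomeric CD33 as analyte at several concentrations, double-referenced 1:1 model fit, KD as koff/kon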
T1 construct: soluble monomeric ECD; also called cyno CD33 ECD
QUANTITY: koff (s⁻¹)
// return numeric value only (unit: s⁻¹, not printed)

Before answering, review these 2 worked examples.
ADI-11807 Fab (Fab, V domains shown, Fab fragment; also called Ab5; I07) VH: EVQLVESGGGLVQPGGSLRLSCAASGFTFGSYWMSWVRQAPGKGLEWVATIKQDGSEKSYVDSVKGRFTISRDNAKNSLYLQMNSLRAEDTAVYYCARPLNAGELDVWGQGTMVTVSS VL: DIQMTQSPSTLSASVGDRVTITCRASQSISSWLAWYQQKPGKAPKLLIYEASSLESGVPSRFSGSGSGTEFTLTISSLQPDDFATYYCQQSQSYPPITFGGGTKVEIK; 0.000151
ADI-11809 Fab (Fab, V domains shown, Fab fragment; also called Ab6) VH: EVQLVESGGGLVQPGGSLRLSCAASGFTFPSYWMSWVRQAPGKGLEWVATIKRDGSEKGYVDSVKGRFTISRDNAKNSLYLQMNSLRAEDTAVYYCARPLNAGELDVWGQGTMVTVSS VL: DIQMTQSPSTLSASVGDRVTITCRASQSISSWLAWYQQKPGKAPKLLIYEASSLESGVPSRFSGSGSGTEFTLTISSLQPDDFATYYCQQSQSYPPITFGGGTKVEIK; 0.000126

// query Suppose we examine the binder ADI-11828 Fab (Fab, V domains shown, Fab fragment; also called Ab27) VH: EVQLVESGGGLVQPGGSLRLSCAASGFTFSSYWMSWVRQAPGKGLEWVANINQDGSEVYYVDSVKGRFTISRDNAKNSLYLQMNSLRAEDTAVYYCARDVGPGIAYQGHFDYWGQGTLVTVSS VL: DIQMTQSPSSLSASVGDRVTITCRASQSIYYYLNWYQQKPGKAPKLLIYAASSRQSGVPSRFSGSGSGTDFTLTISSLQPEDFATYYCQQVYDTPLTFGGGTKVEIK ; what koff value has been reported?
// result 0.0548

Reference source: patent US20220380459A1
